system: HCV replicon 1B; assay: Cell-based HCV Replicon Assay B, replicon 1B; conditions: Hepatitis C virus
pIC50: −log10 of the molar value.

compound	target under test	pIC50
COC(=O)NC(C(=O)N1CCC[C@H]1c1ncc(-c2ccc3c(c2)cc2n3C(c3cnc(C4(C)CC4)s3)Oc3cc(-c4cnc([C@@H]5CCCN5C(=O)[C@@H](NC(=O)OC)C(C)C)[nH]4)cc(F)c3-2)[nH]1)C1CCOC(C)(C)C1 (single isomer, unassigned) [Compound 457]	HCV replicon 1B	11.44
COC(=O)NC(C(=O)N1CCC[C@H]1c1ncc(-c2ccc3c(c2)cc2n3C(c3cnc(C4CC4)s3)Oc3cc(-c4cnc([C@@H]5CCCN5C(=O)[C@@H](NC(=O)OC)C(C)C)[nH]4)cc(F)c3-2)[nH]1)C1C[C@@H](C)O[C@@H](C)C1 (single isomer, unassigned) [Compound 307]	HCV replicon 1B	11.30
COC(=O)N[C@H](C(=O)N1CCC[C@H]1c1nc(-c2cc(F)c3c(c2)OC(c2cnc(-c4cnccn4)s2)n2c-3cc3cc(-c4cnc([C@@H]5CCCN5C(=O)[C@@H](NC(=O)OC)C(C)C)[nH]4)ccc32)c[nH]1)C(C)C (stereo partly shown) [Compound 424]	HCV replicon 1B	9.16
COC(=O)N[C@H](C(=O)N1CCC[C@H]1c1ncc(-c2cc(C)c3c(c2)OC(c2cnc(C4CCC4)s2)n2c-3cc3cc(-c4cnc([C@@H]5C[C@H]6C[C@H]6N5C(=O)[C@@H](NC(=O)OC)C(C)(C)F)[nH]4)ccc32)[nH]1)C(C)C (single isomer, unassigned) [Compound 210]	HCV replicon 1B	11.70
COC(=O)N[C@H](C(=O)N1CCC[C@H]1c1ncc(-c2cc(F)c3c(c2)OC(c2cnc(C(C)(C)C)s2)n2c-3cc3cc(-c4cnc([C@@H]5CCCN5C(=O)[C@@H](NC(=O)OC)C(C)C)[nH]4)ccc32)[nH]1)C(C)C (mixture of isomers) [Compound 418]	HCV replicon 1B	11.52
COC(=O)NC(C(=O)N1CCC[C@H]1c1ncc(-c2ccc3c(c2)cc2n3C(c3cnc(C4CCOCC4)s3)Oc3cc(-c4cnc([C@@H]5CCCN5C(=O)[C@@H](NC(=O)OC)C(C)C)[nH]4)cc(F)c3-2)[nH]1)C1CCOC(C)(C)C1 (single isomer, unassigned) [Compound 448]	HCV replicon 1B	11.22
COC(=O)N[C@H](C(=O)N1CCC[C@H]1c1ncc(-c2cc(F)c3c(c2)OC(c2cnc(-c4ccc(F)cc4F)s2)n2c-3cc3cc(-c4cnc([C@@H]5CCCN5C(=O)[C@@H](NC(=O)OC)C(C)C)[nH]4)ccc32)[nH]1)C(C)C (single isomer, unassigned) [Compound 98]	HCV replicon 1B	11.92
